- Study System: hMPV B2 F GCN4 (human metapneumovirus)
- Test Protocol: ELISA on coated recombinant protein, OD 405 nm
I'd appreciate it if you marked entries yes (1) when EC50 is lower than 0.1 µg/mL and no (0) when it is not.

Would you please look over these solved cases?
[
  {
    "Binder": "MPV86 (antibody, V domains shown) VH: QVQLVQSGAEVKKPGSSVKVSCKASGDTFNDVALSWVRQAPGQGLEWLGGIIPFFGTANYAQRFQDRVTITADASTSTAYLELGGLRSEDTAVYYCARGWSCRNITCFMMGYYFYIMDVWGQGTLVTVSS VL: LSLSPGERATLSCRASQSVGNFLAWYQQKPGQTPRLLIQDASNRATGIPARFSGTGSGTDFTLTISSLEPEDFAVYYCQQRSNWPPTFGPGTKVDIK",
    "Cat": "no (0)"
  },
  {
    "Binder": "MPV491 (antibody, V domains shown) VH: QVQLQESGPGLVKSSQTLSLTCTVSGGSISSVTSHWTWIRQHPGKGLEWIGYIFSSGTTYYSPSLRSRLTMSVDTSKNQFSLQLSSVTAADTAMYYCARGIYCGDSCYKGTDYWGRGTLVTVSS VL: IRLMTQTPVTLPVTPGEPASISCRSSQSLLHSNGYNYLDWYLQKPGQSPQLLIYRGSTRASGVPDRFSGSGSGTEFTLKISRVEAEDVGVYYCMQGLQTPYTFGQGTKLESR",
    "Cat": "no (0)"
  }
]

Decide: EC50 of MPV485 (antibody, V domains shown) V domain 1: EVQLQEPGPGLVKPSETLSLTCTVSGGSISSTNSFWGWVRQPPGKGLEWIGSIYYSGTTYYNSSLKSRVTISVDTSKNQFSLRLSSVTAADTAVYYCARQGLTSSWYDGSGLDVWG V domain 2: SYELTQPPSVSVSPGQTASITCSGDKLGNKYACWYQQRPGQSPVLVIYQDTKRPSGIPERFSGSNSGNTATLTISGTQAMDEADYYCQAWDSNTVVFGGGTKLTVL strictly below 0.1 µg/mL?
no (0)

Decide: EC50 of MPV482 (antibody, V domains shown) VH: EVQLVQSGGGVVQPGRSLRLSCAASGFTFSSFAMHWVRQAPGKGLEWVALISDDGNNKYHADSVKGRFTISRDSSKNTLYLQMNSLRGEDTAVYYCARDGSVVGAAAHCDHWGQGTLVTVSS VL: SYELTQPPSVSVSPGQTARITCSGDALPNQCAYWYQQKPGLAPVLLIYKDKERPSGIPERFSGSISGTTVTLTISGVQAEDEADYYCQSSDSSSTVVFGGGTKLTVL strictly below 0.1 µg/mL?
yes (1)

Decide: EC50 of MPV478 (antibody, V domains shown) VH: EVQLVQSGAEVKKPGASVKVSCNASGYTFTGYYIHWVRQAPGQGLEWMGWINPRSGGTNYAQKFQGRVTLTRDTSITTAYMDVTRLRPDDTAVYYCATTREGIVLMPRGRGDDALDTWGQGTTVIVSS VL: DIVMTQSPVSLTVSLGERATINCKSSQSVLSTSNNENYLAWYQQKPGQPPNLLIYWASTRESGVPDRFSGSGSGTDFTLTISSLQAEDVAVYYCQQYFATPITFGPGTKVDVK strictly below 0.1 µg/mL?
yes (1)

Decide: EC50 of MPV481 (antibody, V domains shown) VH: EVQLVQSGGGLVKPGGSLRLSCAASGLPFNNAWMNWVRQAPGKGLEWVGRIKSKIDGGTTEYAAPVKGRFTISRDDSENTLYLQMNSLRTEDTAVYYCTTEYYALLSGNYSDCWGQGTLVTVSS VL: DIVMTQSPFSLSLSPGERATLSCRASQSIKRAYLGWYQQKPGQAPRLLIYGASNRATGIPDRFSGSGSGTDFTLTISRLEPEDFAVYYCQQYGDSPGGSFGQGTKLEIR strictly below 0.1 µg/mL?
no (0)
